Ref: the supplement of paper PMC11451515

Test system: NOMO1
protocol-notes: cell viability relative to DMSO control; higher = less cytotoxic
particulars: HPLM + 10% dialyzed FBS; 48 h; 46.1 µM
quantity-measured: cell viability (%)
Hi! Could you send only the number? It should be in %, unit omitted.

Record excerpt, results attached:
[
  {
    "substance-smiles": "N#Cc1ccnc(Nc2cc(C3CCN(C4COC4)CC3)cc(N3CCC(F)(F)C3)n2)c1",
    "quantity-measured": "cell viability",
    "val": 10.6
  },
  {
    "substance-smiles": "Cn1c(=O)n(-c2ccc(C(C)(C)C#N)cc2)c2c3cc(-c4cnc5ccccc5c4)ccc3ncc21",
    "quantity-measured": "cell viability",
    "val": 32.2
  },
  {
    "substance-smiles": "CN1CCC[C@@H]1CCO[C@](C)(c1ccccc1)c1ccc(Cl)cc1",
    "quantity-measured": "cell viability",
    "val": 95.2
  },
  {
    "substance-smiles": "CC1(N2CCC(n3c([C@@H]4CCCNC4)nc4ccccc43)CC2)CCCCCCC1",
    "quantity-measured": "cell viability",
    "val": 7.21
  },
  {
    "substance-smiles": "CC[C@H](C)C(=O)O[C@H]1C[C@H](O)\\C=C2\\C=C/[C@H](C)[C@H](CC[C@@H](O)C[C@@H](O)CC(O)=O)[C@@H]12",
    "quantity-measured": "cell viability",
    "val": 84.1
  }
]

The molecule identified as NCCCCNCCCN registered its cell viability at 26.7

The molecule identified as CO/C1=C/C(C)=C\[C@@H](C)[C@@H](O)[C@@H](C)C/C(C)=C\C=C/[C@H](OC)[C@@H]([C@@H](C)[C@@H](O)[C@H](C)[C@@]2(O)C[C@@H](O)[C@H](C)[C@@H](C(C)C)O2)OC1=O registered its cell viability at 9.72

* * *

Tested on: NOMO1
protocol-notes: cell viability relative to DMSO control; higher = less cytotoxic
particulars: RPMI 5 mM glucose + 10% dialyzed FBS; 48 h; 0.000781 µM
Measured cell viability accompanies every entry in the list below.
Hi! Could you send only the number? It should be in %, unit omitted.

Record excerpt, results attached:
[
  {
    "substance-smiles": "O=C(O)CCn1c2c(c3ccccc31)C[C@H](N[S+](=O)([O-])c1ccc(F)cc1)CC2",
    "unit": "%",
    "cell viability": 99.2
  },
  {
    "substance-smiles": "CC1(N2CCC(n3c([C@@H]4CCCNC4)nc4ccccc43)CC2)CCCCCCC1",
    "unit": "%",
    "cell viability": 91
  }
]

Kindly consider the entry below.
The molecule identified as C[S+](=O)([O-])c1cccc(CNc2nc(Nc3ccc4c(c3)CCC(=O)N4)ncc2C(F)(F)F)c1 registered its cell viability at 107

* * *

Measured cell viability accompanies every entry in the list below.
System: P12-Ichikawa
protocol-notes: cell viability relative to DMSO control; higher = less cytotoxic
particulars: RPMI 5 mM glucose + 10% FBS; 48 h; 46.1 µM
Hi! Could you send only the number? It should be in %, unit omitted.

Record excerpt, results attached:
[
  {
    "compound": "Cc1cc(Nc2cc(CN3CCOCC3)c3nc(C)c(Cc4ccc(Cl)cc4F)n3n2)[nH]n1",
    "val": 56.5
  },
  {
    "compound": "COc1ccc([C@@H]2CC(=O)c3c(O)cc(O[C@@H]4O[C@H](CO[C@@H]5O[C@@H](C)[C@H](O)[C@@H](O)[C@H]5O)[C@@H](O)[C@H](O)[C@H]4O)cc3O2)cc1O",
    "val": 109
  },
  {
    "compound": "COC(=O)C1C2CC3c4[nH]c5cc(OC)ccc5c4CCN3CC2CC(OC(=O)c2cc(OC)c(OC)c(OC)c2)C1OC (centres undefined)",
    "val": 91
  }
]

Kindly consider the entry below.
The compound identified as Cc1csc(NC(=O)c2sc3nc4c(c(C(F)(F)F)c3c2N)CCC4)n1 registered its cell viability at 86.5

* * *

Tested on: P12-Ichikawa
protocol-notes: cell viability relative to DMSO control; higher = less cytotoxic
particulars: RPMI 5 mM glucose + 10% FBS; 48 h; 0.19 µM
Measured cell viability accompanies every entry in the list below.
Hey, just the number and the unit after it is fine.

Record excerpt, results attached:
[
  {
    "molecule": "CN(C)CC[C@H](c1ccc(Cl)cc1)c1ccccn1",
    "quantity-measured": "cell viability",
    "val": "80.8%"
  },
  {
    "molecule": "COC1=C2C[C@@H](C)C[C@H](OC)[C@H](O)[C@@H](C)/C=C(\\C)[C@H](OC(N)=O)[C@@H](OC)/C=C/C=C(\\C)C(=O)NC(=CC1=O)C2=O",
    "quantity-measured": "cell viability",
    "val": "108%"
  },
  {
    "molecule": "COc1ccc(C2Sc3ccccc3N(CCN(C)C)C(=O)C2OC(C)=O)cc1 (stereo not drawn)",
    "quantity-measured": "cell viability",
    "val": "112%"
  },
  {
    "molecule": "Cn1c(=O)n(-c2ccc(C(C)(C)C#N)cc2)c2c3cc(-c4cnc5ccccc5c4)ccc3ncc21",
    "quantity-measured": "cell viability",
    "val": "82.7%"
  },
  {
    "molecule": "Cc1cc(Nc2cc(CN3CCOCC3)c3nc(C)c(Cc4ccc(Cl)cc4F)n3n2)[nH]n1",
    "quantity-measured": "cell viability",
    "val": "116%"
  }
]

The molecule identified as CC(O)(C#Cc1ccc2c(c1)N(c1nc(N)ncc1Cl)CC2)c1nccs1 (stereo not drawn) registered its cell viability at 115%

The molecule identified as Cc1csc(NC(=O)c2sc3nc4c(c(C(F)(F)F)c3c2N)CCC4)n1 registered its cell viability at 91.1%

The molecule identified as Oc1cccc(-c2nc(N3CCOCC3)c3oc4ncccc4c3n2)c1 registered its cell viability at 102%

* * *

Test system: NOMO1
protocol-notes: cell viability relative to DMSO control; higher = less cytotoxic
particulars: RPMI 5 mM glucose + 10% FBS; 48 h; 0.0632 µM
Measured cell viability accompanies every entry in the list below.

Summary line: Nc1ncnc2ccccc12 , NOMO1, reported cell viability = 97.6%

Summary line: CN(C)c1nc(Cc2ccc(NC(=O)c3ccc4ccccc4c3)cc2)nc(Cl)c1CC(=O)O , NOMO1, reported cell viability = 100%

* * *

Tested on: P12-Ichikawa
protocol-notes: cell viability relative to DMSO control; higher = less cytotoxic
particulars: RPMI 5 mM glucose + 10% dialyzed FBS; 48 h; 0.00234 µM
quantity-measured: cell viability
Hey, just the number and the unit after it is fine.

[
  {
    "substance-smiles": "Cc1cc(Nc2cc(CN3CCOCC3)c3nc(C)c(Cc4ccc(Cl)cc4F)n3n2)[nH]n1",
    "assay-system": "P12-Ichikawa",
    "val": "101%"
  },
  {
    "substance-smiles": "CCOC(=O)c1cncn1[C@H](C)c1ccccc1",
    "assay-system": "P12-Ichikawa",
    "val": "126%"
  },
  {
    "substance-smiles": "ClC1=CC\\2=C(OC3=C(C=CC=C3)\\N=C2N4CCNCC4)C=C1",
    "assay-system": "P12-Ichikawa",
    "val": "102%"
  }
]

The molecule identified as C[S+](=O)([O-])c1ccc(-c2cnc(N)c(C(=O)Nc3ccccc3)n2)cc1 registered its cell viability at 117%

The molecule identified as CN(C)c1nc(Cc2ccc(NC(=O)c3ccc4ccccc4c3)cc2)nc(Cl)c1CC(=O)O registered its cell viability at 113%

* * *

Tested on: SEM cells
protocol-notes: cell viability relative to DMSO control; higher = less cytotoxic
particulars: RPMI 5 mM glucose + 10% dialyzed FBS; 48 h; 0.569 µM
Measured cell viability accompanies every entry in the list below.
Hi! Could you send only the number? It should be in %, unit omitted.

[
  {
    "substance-smiles": "O=C(Nc1ncc(SCCN2CCCC2)s1)[C@]1(c2ccc([S+](=O)([O-])C3CC3)cc2)C[C@H]1C1CCCCC1",
    "assay-system": "SEM cells",
    "cell viability / %": 138
  },
  {
    "substance-smiles": "O=C(Oc1ccc([N+](=O)[O-])cc1)N1CCC(C(O)(c2ccc3c(c2)OCO3)c2ccc3c(c2)OCO3)CC1",
    "assay-system": "SEM cells",
    "cell viability / %": 97.9
  },
  {
    "substance-smiles": "COc1cccc([C@@H](C)NCCCc2ccccc2Cl)c1",
    "assay-system": "SEM cells",
    "cell viability / %": 97.2
  },
  {
    "substance-smiles": "COc1cc(OC)c(OC)cc1C=O",
    "assay-system": "SEM cells",
    "cell viability / %": 94
  },
  {
    "substance-smiles": "Cc1cc(C(=O)N2CCN(c3cccc(Cl)c3)CC2)n(-c2ccccc2)n1",
    "assay-system": "SEM cells",
    "cell viability / %": 93.3
  },
  {
    "substance-smiles": "C[C@H]1[C@@H](C(=O)C[C@H]2O[C@@H]3O[C@]4(C)CC[C@H]5[C@H](C)CC[C@@H]([C@H]2C)[C@@]35OO4)O[C@@H]2O[C@]3(C)CC[C@H]4[C@H](C)CC[C@@H]1[C@@]24OO3",
    "assay-system": "SEM cells",
    "cell viability / %": 116
  },
  {
    "substance-smiles": "O=C(O)/C=C/c1ccc(O)c(O)c1",
    "assay-system": "SEM cells",
    "cell viability / %": 104
  },
  {
    "substance-smiles": "CN[C@@H](C)C(=O)N[C@H]1CN(C(=O)CC(C)C)CC[C@H]2CC[C@@H](C(=O)NC(c3ccccc3)c3ccccc3)N2C1=O",
    "assay-system": "SEM cells",
    "cell viability / %": 102
  }
]

The molecule identified as Cn1c(=O)n(-c2ccc(C(C)(C)C#N)cc2)c2c3cc(-c4cnc5ccccc5c4)ccc3ncc21 registered its cell viability at 51.4

The molecule identified as COC1=CC=C(C=C1O)C/2=C/C(=O)C3=C(O2)C=C(O)C=C3O registered its cell viability at 111

The molecule identified as CN1\C(=C(\O)C2=C(C=CC=C2)[S+]1([O-])=O)C(=O)NC3=CC=CC=N3 registered its cell viability at 8.39

The molecule identified as COC1=C2C[C@@H](C)C[C@H](OC)[C@H](O)[C@@H](C)/C=C(\C)[C@H](OC(N)=O)[C@@H](OC)/C=C/C=C(\C)C(=O)NC(=CC1=O)C2=O registered its cell viability at 99.7

The molecule identified as CC[C@H](C)C(=O)O[C@H]1C[C@H](O)\C=C2\C=C/[C@H](C)[C@H](CC[C@@H](O)C[C@@H](O)CC(O)=O)[C@@H]12 registered its cell viability at 121

The molecule identified as C/C(O)=C(\C#N)C(=O)Nc1cc(Br)ccc1Br registered its cell viability at 105
